The origin of these recorded values is patent US8846949B2.

Target: N-type calcium channel α1B (Cav2.2), β3 and α2δ subunits (Homo sapiens, UniProt Q00975)
Sequence (Q00975 whole entry): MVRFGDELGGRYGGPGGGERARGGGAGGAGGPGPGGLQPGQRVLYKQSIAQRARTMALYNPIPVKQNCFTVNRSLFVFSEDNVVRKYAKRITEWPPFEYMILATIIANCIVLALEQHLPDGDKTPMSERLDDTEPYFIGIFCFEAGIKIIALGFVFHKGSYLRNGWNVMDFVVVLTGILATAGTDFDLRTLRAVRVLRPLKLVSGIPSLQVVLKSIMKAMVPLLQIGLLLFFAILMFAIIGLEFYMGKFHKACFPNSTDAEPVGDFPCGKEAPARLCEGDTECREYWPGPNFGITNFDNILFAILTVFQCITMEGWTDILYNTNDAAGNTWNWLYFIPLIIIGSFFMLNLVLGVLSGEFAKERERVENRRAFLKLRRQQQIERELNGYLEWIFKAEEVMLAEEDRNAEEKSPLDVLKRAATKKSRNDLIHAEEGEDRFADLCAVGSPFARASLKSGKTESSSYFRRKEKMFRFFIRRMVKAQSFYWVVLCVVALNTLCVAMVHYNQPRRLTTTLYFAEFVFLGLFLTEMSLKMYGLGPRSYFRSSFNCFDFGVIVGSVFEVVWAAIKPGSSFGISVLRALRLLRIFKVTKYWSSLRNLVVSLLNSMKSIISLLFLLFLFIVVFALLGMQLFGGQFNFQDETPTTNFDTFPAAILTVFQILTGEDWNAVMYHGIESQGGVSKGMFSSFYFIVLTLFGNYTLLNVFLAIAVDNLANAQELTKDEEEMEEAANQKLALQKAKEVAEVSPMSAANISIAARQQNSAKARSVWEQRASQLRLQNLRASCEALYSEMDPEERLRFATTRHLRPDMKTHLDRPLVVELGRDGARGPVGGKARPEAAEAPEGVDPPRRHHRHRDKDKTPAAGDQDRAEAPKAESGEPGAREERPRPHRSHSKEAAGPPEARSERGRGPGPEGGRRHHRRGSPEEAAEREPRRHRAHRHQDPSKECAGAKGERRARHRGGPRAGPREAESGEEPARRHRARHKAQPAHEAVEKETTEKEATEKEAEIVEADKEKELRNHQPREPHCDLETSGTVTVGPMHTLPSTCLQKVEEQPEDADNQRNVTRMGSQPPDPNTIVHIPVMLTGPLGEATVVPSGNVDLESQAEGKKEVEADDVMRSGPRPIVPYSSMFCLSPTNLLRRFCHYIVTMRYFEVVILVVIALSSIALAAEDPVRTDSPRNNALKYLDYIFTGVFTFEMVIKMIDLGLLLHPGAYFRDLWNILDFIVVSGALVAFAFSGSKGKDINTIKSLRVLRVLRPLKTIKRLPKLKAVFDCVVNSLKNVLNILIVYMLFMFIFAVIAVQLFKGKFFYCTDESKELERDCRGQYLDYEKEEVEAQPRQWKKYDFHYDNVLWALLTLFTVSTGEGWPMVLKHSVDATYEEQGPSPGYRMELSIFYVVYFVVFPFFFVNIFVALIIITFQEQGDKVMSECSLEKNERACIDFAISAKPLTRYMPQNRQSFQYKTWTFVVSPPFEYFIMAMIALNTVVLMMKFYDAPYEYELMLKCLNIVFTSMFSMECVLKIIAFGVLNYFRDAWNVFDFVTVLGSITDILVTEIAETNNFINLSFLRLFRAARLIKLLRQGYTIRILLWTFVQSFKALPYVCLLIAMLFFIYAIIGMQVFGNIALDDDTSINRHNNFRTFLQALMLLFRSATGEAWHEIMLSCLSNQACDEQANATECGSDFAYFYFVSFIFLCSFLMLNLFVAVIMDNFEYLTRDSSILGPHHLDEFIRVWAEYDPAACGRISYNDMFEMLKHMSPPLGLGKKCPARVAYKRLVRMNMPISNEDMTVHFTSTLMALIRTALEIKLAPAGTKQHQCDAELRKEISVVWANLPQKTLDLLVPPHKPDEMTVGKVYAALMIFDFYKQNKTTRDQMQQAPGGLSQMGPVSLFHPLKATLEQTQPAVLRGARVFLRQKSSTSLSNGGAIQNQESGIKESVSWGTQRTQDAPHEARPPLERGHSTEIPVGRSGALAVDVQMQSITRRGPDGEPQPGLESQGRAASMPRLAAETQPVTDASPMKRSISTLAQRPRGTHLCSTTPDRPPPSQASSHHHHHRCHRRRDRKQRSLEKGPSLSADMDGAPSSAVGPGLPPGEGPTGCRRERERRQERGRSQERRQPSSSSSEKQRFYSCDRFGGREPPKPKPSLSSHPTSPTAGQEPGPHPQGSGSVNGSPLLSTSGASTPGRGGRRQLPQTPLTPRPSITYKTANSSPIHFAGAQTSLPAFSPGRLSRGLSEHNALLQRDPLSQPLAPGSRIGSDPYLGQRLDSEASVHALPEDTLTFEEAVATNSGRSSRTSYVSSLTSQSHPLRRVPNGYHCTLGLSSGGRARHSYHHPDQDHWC
Sequence (P54284 whole entry partner): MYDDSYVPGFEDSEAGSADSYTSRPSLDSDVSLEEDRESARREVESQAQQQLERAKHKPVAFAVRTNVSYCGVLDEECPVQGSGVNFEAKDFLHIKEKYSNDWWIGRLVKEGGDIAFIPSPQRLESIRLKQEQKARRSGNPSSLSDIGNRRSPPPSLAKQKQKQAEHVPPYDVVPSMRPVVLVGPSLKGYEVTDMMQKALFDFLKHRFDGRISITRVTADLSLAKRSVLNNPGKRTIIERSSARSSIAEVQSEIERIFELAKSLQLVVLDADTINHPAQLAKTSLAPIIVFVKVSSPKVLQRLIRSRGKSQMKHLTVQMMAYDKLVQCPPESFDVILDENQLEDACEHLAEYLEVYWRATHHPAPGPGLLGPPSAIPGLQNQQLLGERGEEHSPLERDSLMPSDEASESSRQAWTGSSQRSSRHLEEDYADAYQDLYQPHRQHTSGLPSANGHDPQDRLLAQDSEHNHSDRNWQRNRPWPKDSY
Sequence (P54289 25-956 partner limits assumed): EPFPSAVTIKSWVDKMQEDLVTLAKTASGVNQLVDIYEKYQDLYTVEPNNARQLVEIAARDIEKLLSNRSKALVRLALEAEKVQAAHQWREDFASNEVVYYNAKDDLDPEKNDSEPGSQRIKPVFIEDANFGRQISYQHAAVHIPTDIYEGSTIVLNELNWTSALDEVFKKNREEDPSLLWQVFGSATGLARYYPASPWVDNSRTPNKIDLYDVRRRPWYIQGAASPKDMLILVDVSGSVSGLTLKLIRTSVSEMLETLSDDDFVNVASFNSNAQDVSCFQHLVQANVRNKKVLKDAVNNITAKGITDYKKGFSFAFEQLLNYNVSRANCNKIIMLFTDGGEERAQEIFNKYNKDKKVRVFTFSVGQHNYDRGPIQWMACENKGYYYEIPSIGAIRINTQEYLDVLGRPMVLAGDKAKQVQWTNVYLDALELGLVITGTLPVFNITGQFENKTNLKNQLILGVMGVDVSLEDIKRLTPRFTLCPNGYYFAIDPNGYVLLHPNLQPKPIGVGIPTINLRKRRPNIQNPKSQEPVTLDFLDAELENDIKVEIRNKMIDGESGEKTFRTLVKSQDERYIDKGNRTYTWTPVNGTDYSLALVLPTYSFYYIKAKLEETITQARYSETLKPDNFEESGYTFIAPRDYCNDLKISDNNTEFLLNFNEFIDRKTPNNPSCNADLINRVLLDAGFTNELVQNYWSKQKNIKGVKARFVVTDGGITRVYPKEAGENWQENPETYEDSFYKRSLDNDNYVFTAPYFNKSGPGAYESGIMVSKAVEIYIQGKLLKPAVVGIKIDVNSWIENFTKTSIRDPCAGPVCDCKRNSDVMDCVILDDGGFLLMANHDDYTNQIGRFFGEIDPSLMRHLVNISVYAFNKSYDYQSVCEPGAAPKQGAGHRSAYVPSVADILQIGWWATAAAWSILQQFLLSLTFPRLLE
Sequence (P54289 957-1103 partner limits assumed): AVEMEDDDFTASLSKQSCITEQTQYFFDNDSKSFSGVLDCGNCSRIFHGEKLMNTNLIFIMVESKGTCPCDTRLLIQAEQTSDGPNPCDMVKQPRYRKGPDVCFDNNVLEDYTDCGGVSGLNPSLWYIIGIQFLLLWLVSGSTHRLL
Experiment: Functional assay, antagonism of N-type calcium channel (FDSS calcium mobilization response to KCl depolarization)
Settings: HEK stable cell line; 50 mM KCl depolarization; six-point concentration-response
MEASURED ENDPOINT: IC50

Please state IC50 for every molecule in the list that follows.
1. COc1ccccc1-n1nc2c(c1-c1ccc(Cl)cc1)CN(C(=O)CNC(=O)OC(C)(C)C)C2 [Cpd 29]
2. CC(C)S(=O)(=O)N1Cc2nn(-c3cccc4c3OCO4)c(-c3ccc(Cl)cc3)c2C1 [Cpd 81]
3. COc1ccccc1-n1nc2c(c1-c1ccc(Cl)cc1)CN(S(=O)(=O)CC(F)(F)F)C2 [Cpd 36]
4. COc1ccccc1-n1nc2c(c1-c1ccc(Cl)cc1)CN(S(=O)(=O)CCNS(=O)(=O)C(C)C)C2 [Cpd 45]
5. COc1ccccc1-n1nc2c(c1-c1ccc(Cl)nc1)CN(S(=O)(=O)C(C)C)C2 [Cpd 92]
6. COc1cc(Cl)ccc1-n1nc2c(c1-c1ccc(Cl)cc1)CN(S(=O)(=O)C(C)C)C2 [Cpd 64]
7. COc1cc(C)ccc1-n1nc2c(c1-c1ccc(Cl)cc1)CN(S(=O)(=O)C(C)C)C2 [Cpd 75]
8. O=C(N1Cc2nn(-c3ccccc3OC(F)(F)F)c(-c3ccc(Cl)cc3)c2C1)C(F)(F)F [Cpd 21]

1: 180 nM; 2: 20 nM; 3: 15 nM; 4: 13 nM; 5: 16 nM; 6: 33 nM; 7: 32 nM; 8: 300 nM
